Data provenance: PubChem BioAssay AID1159580

Reported normalized growth by item:
assay: chemical genetic growth profiling, strain panel (AID 1159580);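 also: tested at 20 µM; growth read once vehicle control cultures reached saturation at 30 °C; 1 = growth at the plate median or of vehicle wells; lower values mean less growth of the strain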; conditions: S. cerevisiae deletion strains, growth OD, locus YER155C, strain BEM2, hits give low values
Out of some 5,500 compounds screened, about 2,000 (36%) were called active. About 18% were inconclusive and are not listed. This is one part of the list.
Reply with the value as a number alone.

COc1cc([C@@H]2c3cc4c(cc3[C@H](OC(C)=O)[C@H]3COC(=O)[C@H]23)OCO4)cc(OC)c1OC : 0.983
CCCN1C[C@H](CSC)C[C@@H]2c3cccc4[nH]cc(c34)C[C@H]21 : 1
NS(=O)(=O)c1cc2c(cc1C(F)(F)F)NCNS2(=O)=O : 1
CC1=C2C(=CO[C@H](C)[C@H]2C)C(=O)C(C(=O)O)=C1O : 0.982

# input Reported normalized growth, compound C[N+]1(CCCCC[N+]2(C)CCCC2)CCCC1 : ____
# output 0.997

====

experiment: chemical genetic growth profiling, strain panel (AID 1159580); conditions: S. cerevisiae deletion strains, growth OD, locus YOL147C, strain pex11
About 2,000 (36%) of roughly 5,500 compounds were called active. Another 18% or so got no clear call; they are omitted. No stated cut-off is given here; in the data, active means normalized growth mostly below about 0.91 (no sharp cut-off); inconclusive means no clear call, values can overlap the other calls; inactive means mostly above about 0.92. The list shows a part of the results.
Pick one and only one: TRUE = active, FALSE = inactive

Please review the following examples before continuing.
COC(=O)C1=C(C)NC(C)=C(C(=O)OCCN(C)Cc2ccccc2)C1c1cccc([N+](=O)[O-])c1 (stereo unspecified) : FALSE
COCCOC(=O)C1=C(C)NC(C)=C(C(=O)OC(C)C)C1c1cccc([N+](=O)[O-])c1 (stereo unspecified) : FALSE

# input I'd appreciate the recorded outcome for CN(C)CC/C=C1/c2ccccc2COc2ccccc21 from this test.
# output FALSE

====

experiment: chemical genetic growth profiling, strain panel (AID 1159580); details: S. cerevisiae deletion strains, growth OD, locus YJR043C, strain POL32, hits give low values
Among all 5,500 compounds or so, about 2,000 (36%) were called active. Inconclusive results (about 18%) are left out. Some of the results follow.
testReadout: normalized growth
Reply with the value as a number alone.

Worked cases, normalized growth given:
COc1cc([C@@H]2c3cc4c(cc3[C@H](O)[C@H]3COC(=O)[C@@H]23)OCO4)cc(OC)c1OC : 1.01
O=c1c(-c2cc(O)c(O)c(O)c2)coc2cc(O)c(O)c(O)c12 : 0.752
CN1CCN2c3ccccc3Cc3ccccc3C2C1 (configuration not stated) : 1

# input Reported normalized growth, molecule Cc1cc(C(F)(F)F)c(C#N)c(=O)[nH]1 : ____
# output 0.997

# input Reported normalized growth, molecule COc1ccc(-c2coc3cc(O)cc(O)c3c2=O)cc1 : ____
# output 0.374

# input Reported normalized growth, molecule CC(=O)CC(c1ccccc1)c1c(O)c2ccccc2oc1=O (configuration not stated) : ____
# output 1.03

====

assay: chemical genetic growth profiling, strain panel (AID 1159580); conditions: S. cerevisiae deletion strains, growth OD, locus YJL115W, strain asf1, hits give low values
The campaign covered roughly 5,500 compounds. About 2,000 (36%) were called active. About 18% were inconclusive and are not listed. Some of the results follow.
Reported normalized growth by item:
Reply with the value as a number alone.

Worked cases, normalized growth given:
CC(=O)O[C@@H]1CC2C(C)(C)[C@H](O)C[C@H](O)[C@]2(C)C2CC[C@@]3(C)[C@H](c4ccoc4)OC(=O)[C@H]4O[C@]43[C@@]21C (stereo partly drawn) : 0.984
CC(=O)O[C@@H]1CC2C(C)(C)C(=O)CC[C@]2(C)C2CC[C@@]3(C)[C@H](c4ccoc4)OC(=O)C4OC43[C@@]21C (stereo partly drawn) : 0.99

Could you now consider this next compound?
# input Reported normalized growth, compound CC(=O)O[C@@H]1CC2C(C)(C)CCC(=O)[C@]2(C)C2CC[C@@]3(C)[C@H](c4ccoc4)OC(=O)C4OC43[C@@]21C (stereo partly drawn) : ____
# output 0.994

====

assay: chemical genetic growth profiling, strain panel (AID 1159580); conditions: S. cerevisiae deletion strains, growth OD, locus YLR039C, strain RIC1
Out of some 5,500 compounds screened, about 2,000 (36%) were called active. About 18% were inconclusive and are not listed. No stated cut-off is given here; in the data, active means normalized growth mostly below about 0.91 (no sharp cut-off); inconclusive means no clear call, values can overlap the other calls; inactive means mostly above about 0.92. The list shows a part of the results.
Pick one and only one: active, inactive

Please review the following examples before continuing.
CSc1ccc(C(=O)O)s1 : inactive
Nc1ccc(C(=O)O)c(O)c1 : inactive
O=C(N/N=C\c1ccccc1Cl)c1cccnc1 : inactive
CN(C)CC/C=C1/c2ccccc2COc2ccccc21 : inactive
COc1ccc2cc3[n+](cc2c1OC)CCc1cc2c(cc1-3)OCO2 : inactive

# input I'd appreciate the recorded outcome for O=C1CCc2cc(OCCCCc3nnnn3C3CCCCC3)ccc2N1 from this test.
# output inactive

====

experiment: chemical genetic growth profiling, strain panel (AID 1159580);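 also: tested at 20 µM; growth read once vehicle control cultures reached saturation at 30 °C; 1 = growth at the plate median or of vehicle wells; lower values mean less growth of the strain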; conditions: S. cerevisiae deletion strains, growth OD, locus YCR088W, strain abp1, hits give low values
Hit rate of the full screen: of about 5,500 compounds, about 2,000 (36%) were called active. About 18% were inconclusive and are not listed. Some of the results follow.
Reported normalized growth by item:

NCCc1ccc(O)c(O)c1 : 0.995 (inactive)
CN(C)C(=O)Oc1cc(OC(=O)N(C)C)cc(C(O)CNC(C)(C)C)c1 (stereo unspecified) : 1.03 (inactive)
COc1cc([C@@H]2c3cc4c(cc3[C@H](O)[C@H]3COC(=O)[C@@H]23)OCO4)cc(OC)c1OC : 1.02 (inactive)
CCCCCCc1ccc(O)cc1O : 0.939 (inactive)
CN1CCOC(c2ccccc2)c2ccccc2C1 (stereo unspecified) : 0.973 (inactive)
COc1cccc(-c2cc(=O)c3ccc(OC)cc3o2)c1 : 0.938 (inactive)
C=C1C(N)CC2CC1C2(C)C (stereo unspecified) : 0.989 (inactive)
COc1cc([C@@H]2c3cc4c(cc3C(O[C@@H]3O[C@@H]5CO[C@@H](c6cccs6)OC5[C@H](O)[C@H]3O)C3COC(=O)[C@@H]32)OCO4)cc(OC)c1O (stereo partly specified) : 0.984 (inactive)

# input Reported normalized growth, compound O=c1cc(-c2cccc(O)c2)oc2ccc(O)cc12 : ____
# output 0.962 (inactive)

# input Reported normalized growth, compound [N-]=[N+]=CC(=O)OCC(N)C(=O)O (stereo unspecified) : ____
# output 1.01 (inactive)

# input Reported normalized growth, compound CCCCC1C(=O)N(c2ccccc2)N(c2ccccc2)C1=O : ____
# output 0.985 (inactive)

====

test: chemical genetic growth profiling, strain panel (AID 1159580);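 also: tested at 20 µM; growth read once vehicle control cultures reached saturation at 30 °C; 1 = growth at the plate median or of vehicle wells; lower values mean less growth of the strain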; conditions: S. cerevisiae deletion strains, growth OD, locus YDR150W, strain NUM1, hits give low values
The whole screen tested about 5,500 compounds, of which about 2,000 (36%) were called active. Another 18% or so got no clear call; they are omitted. This is one part of the list.
Reported normalized growth by item:
Reply with the value as a number alone.

Worked cases, normalized growth given:
O=C1NC(c2ccccc2Cl)Nc2ccccc21 (stereo not drawn) : 0.998
CCC(CCC(C)[C@H]1CCC2C3CC=C4C[C@@H](O)CC[C@]4(C)C3CC[C@@]21C)C(C)C (stereo partly drawn) : 0.997

# input Reported normalized growth, compound CCN(CCCCOC(=O)c1ccc(OC)c(OC)c1)C(C)Cc1ccc(OC)cc1 (stereo not drawn) : ____
# output 0.96

# input Reported normalized growth, compound CC(C)(Oc1ccc(Cl)cc1)C(=O)O : ____
# output 0.995

# input Reported normalized growth, compound N[C@@H](Cn1cc(I)c(=O)[nH]c1=O)C(=O)O : ____
# output 0.988

# input Reported normalized growth, compound CCC(/C=C/[C@@H](C)[C@H]1CCC2C3CC=C4C[C@@H](O)CC[C@]4(C)C3CC[C@@]21C)C(C)C (stereo partly drawn) : ____
# output 1.02

# input Reported normalized growth, compound CC1NC(=O)NC1=O (stereo not drawn) : ____
# output 1.02

# input Reported normalized growth, compound C[C@@H]1C(=O)NC2=Nc3cccc(Cl)c3CN21 : ____
# output 1.01

# input Reported normalized growth, compound CC1(C)O[C@@H]2CC3C4CCC5=CC(=O)C=C[C@]5(C)[C@@]4(F)[C@@H](O)C[C@]3(C)[C@]2(C(=O)CO)O1 (stereo partly drawn) : ____
# output 1.02

# input Reported normalized growth, compound CC(=O)C1COc2ccc(C)cc2C1=O (stereo not drawn) : ____
# output 0.984

# input Reported normalized growth, compound CN1CCc2c(c3ccccc3n2Cc2ccccc2)C1 : ____
# output 1.01

# input Reported normalized growth, compound c1ccc(Sc2c(-c3ccccc3)nc3ccccn23)cc1 : ____
# output 0.8

====

experiment: chemical genetic growth profiling, strain panel (AID 1159580);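 also: tested at 20 µM; growth read once vehicle control cultures reached saturation at 30 °C; 1 = growth at the plate median or of vehicle wells; lower values mean less growth of the strain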; details: S. cerevisiae deletion strains, growth OD, locus YDR334W, strain swr1
Out of some 5,500 compounds screened, about 2,000 (36%) were called active. Another 18% or so got no clear call; they are omitted. Cut-off read from the data, not from the text of the source: active = normalized growth mostly below about 0.91 (no sharp cut-off); inconclusive = no clear call, values can overlap the other calls; inactive = mostly above about 0.92. This is one part of the list.
Pick one and only one: active, inactive

Please review the following examples before continuing.
COc1ccc(-c2cc(=O)c3c(OC)c(OC)c(OC)c(OC)c3o2)cc1 : inactive
O=C(/C=C/c1ccccc1)c1ccc(O)cc1 : active
CN(N=O)C(=O)N[C@@H]1[C@@H](O)[C@H](O)[C@@H](CO)O[C@@H]1O : inactive
COc1ccc(-c2cc(=O)c3cc(OC)ccc3o2)cc1 : inactive
COc1ccc(-c2cc(=O)c3c(O)c(OC)c(OC)c(OC)c3o2)cc1 : inactive

# input I'd appreciate the recorded outcome for C[n+]1cc2c3c(ccc2c2ccc4cc5c(cc4c21)OCO5)OCO3 from this test.
# output active

# input I'd appreciate the recorded outcome for COc1ccc(C(=O)/C=C/c2ccccc2)cc1 from this test.
# output inactive

# input I'd appreciate the recorded outcome for COc1cc2cc[n+]3cc4c(OC)c(OC)ccc4cc3c2cc1OC from this test.
# output inactive
